Where do these numbers come from? They come from patent EP0158267A2.

# TEST_NAME: Acute toxicity, oral, 7 days observation (Litchfield and Wilcoxon)
# Assay type: in vivo, Maus
# RUN_CONDITIONS: in vivo; mouse, oral, 7 days observation; * = highest technically applicable dose; read-out: Akute Toxi-zität LD50 mg/kg KG. Maus oral
METRIC: LD50 at 168 h (mg/kg)

> print(dat)
                                   molecule         metric  unit.spec  comparator  quantitative.readout
1  CN1C(=O)C(O)N=C(c2ccccc2F)c2cc([N+](=O)[O-])ccc21 (centres unmarked)  LD50 at 168 h      mg/kg           >                  8690
2  CN1C(=O)C(O)N=C(c2ccccc2Cl)c2cc(Cl)ccc21 (centres unmarked) [Lormetazepam, reference compound]  LD50 at 168 h      mg/kg           =                  6300
3  O=C1Nc2ccc([N+](=O)[O-])cc2C(c2ccccc2F)=NC1O (centres unmarked)  LD50 at 168 h      mg/kg           >                 10000
4  CN1C(=O)CN=C(c2ccccc2F)c2cc([N+](=O)[O-])ccc21 [Flunitrazepam, reference compound]  LD50 at 168 h      mg/kg           =                  2700
5  CN1C(=O)C(O)N=C(c2ccccc2)c2cc([N+](=O)[O-])ccc21 (centres unmarked) [DE-OS 14 45 873 Beispiel 12, reference compound]  LD50 at 168 h      mg/kg           =                  4700
